Where do the numbers come from? From ChEMBL document CHEMBL2046351.

# experiment notes: Ratio of drug uptake in brain to blood in C57BL/6 mouse at 6 umol/kg, po dosed in HS15/propylenglycol/citrate buffer, pH 4.75, 50 mM (10/5/85, v/v/v) measured 1 hr post dosing by LC/MS/MS analysis
# Assay type: ADME, organism-based
measure: Kp at 1 h

{"mol smiles": "CC(C)(C)c1cccc(CN[C@H]2CS(=O)(=O)C[C@@H](Cc3cc(F)c(N)c(OC(C(F)(F)F)C(F)(F)F)c3)[C@@H]2O)c1", "value measured": 0.3}

###

# experiment notes: Drug uptake in C57BL/6 mouse blood at 60 umol/kg, po dosed in carboxymethyl cellulose 0.5% w/v in water/Tween 80 (99.5/0.5, v/v) measured 4 hrs post dosing by LC/MS/MS analysis
# Format: ADME, organism-based
# protocol conditions: read-out: Drug uptake
// reported concentration at 4 h per item

{"mol smiles": "CC(C)(C)c1cccc(CN[C@H]2CS(=O)(=O)C[C@@H](Cc3ccc(N)c(Br)c3)[C@@H]2O)c1", "concentration at 4 h, nM": 2980}
{"mol smiles": "CC(C)(C)c1cccc(CN[C@H]2CS(=O)(=O)C[C@@H](Cc3cc(F)c(N)c(OCC(F)(F)F)c3)[C@@H]2O)c1", "concentration at 4 h, nM": 1860}
